Tested on: WHIM2 (cells of a triple-negative basal-like breast cancer xenograft);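 further: PDX cells carrying CMV promoter-driven luciferase, viability read as total photon flux per second by IVIS imaging following D-luciferin, vehicle control 0.1% DMSO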
Assay: cell viability (% of vehicle); higher = less cytotoxic
Conditions: 10 µM; 72 h
Note to self: cell viability under 70 means T, ties and anything higher get F.

| compound | assigned label |
| --- | --- |
| CCCCc1ncc(C=C(Cc2cccs2)C(=O)O)n1Cc1ccc(C(=O)O)cc1.CS(=O)(=O)O [Eprosartan Mesylate] | F |
| CC1(C)Cc2c(-c3ccccc3)c(-c3ccc(Cl)cc3)c(CC(=O)O)n2C1 [Licofelone] | T |
| CN(C)c1ccc(C(=C2C=CC(=[N+](C)C)C=C2)c2ccc(N(C)C)cc2)cc1.[Cl-] [Crystal Violet] | T |
| CN1CCN(c2nc(C3=C(c4c[nH]c5ccccc45)C(=O)NC3=O)c3ccccc3n2)CC1 [Sotrastaurin (AEB071)] | F |
| C#CC1(O)CCC2C3CCC4=CC(=O)CCC4C3CCC21CC (stereo unspecified) [Levonorgestrel] | F |
| CC(C)(C)NCC(O)COc1nsnc1N1CCOCC1.O=C(O)C=CC(=O)O (stereo unspecified) [Timolol Maleate] | F |
| O=C(Nc1cccc2c(=O)cc(-c3nn[nH]n3)oc12)c1ccc(OCCCCc2ccccc2)cc1 [Pranlukast] | T |
| CCCCN1CCCCC1C(=O)Nc1c(C)cccc1C.Cl (stereo unspecified) [Levobupivacaine HCl] | F |
| Cc1[nH]c(C=C2C(=O)Nc3ccccc32)c(C)c1CCC(=O)O [TSU-68 (SU6668,Orantinib)] | T |
| C#Cc1cccc(Nc2ncnc3cc(OC)c(OCCCCCCC(=O)NO)cc23)c1 | T |
| O=C1NC(=O)[C@@H](c2c[nH]c3ccccc23)[C@H]1c1cn2c3c(cccc13)CCC2 [Tivantinib (ARQ 197)] | F |
| Cc1nc2n(c(=O)c1CCN1CCC(c3noc4cc(F)ccc34)CC1)CCCC2 [Risperidone] | F |
| COc1nc(C)nc(Cl)c1NC1=NCCN1 [Moxonidine] | F |
| Cl.O=S(=O)(c1cccc2cnccc12)N1CCCNCC1 [Fasudil (HA-1077) HCl] | F |
| Nc1ccc(C(=O)NCC(=O)[O-])cc1.[Na+] [Sodium 4-amiropparaty Hyalrate] | F |
